species on record: Homo sapiens; assay: Selectivity ratio of IC50 for human cathepsin B to IC50 for humanized rabbit cathepsin K
property.measured: Ratio IC50

compound	property.measured	recorded.measurement
CC(C)(F)C[C@H](N[C@@H](c1ccc(-c2ccc(S(C)(=O)=O)cc2)cc1)C(F)(F)F)C(=O)NC1CN(C(=O)NCc2ccccc2)CC1=O (stereo partly drawn)	Ratio IC50	53
CC(C)(F)C[C@H](N[C@@H](c1ccc(-c2ccc(S(C)(=O)=O)cc2)cc1)C(F)(F)F)C(=O)NC1CN(C(=O)OC(C)(C)C)CC1=O (stereo partly drawn)	Ratio IC50	27
CC(C)(F)C[C@H](N[C@@H](c1ccc(-c2ccc(S(C)(=O)=O)cc2)cc1)C(F)(F)F)C(=O)NC1CCCN(S(=O)(=O)Cc2ccccc2)CC1=O (stereo partly drawn)	Ratio IC50	50
CC(C)(F)C[C@H](N[C@@H](c1ccc(-c2ccc(S(C)(=O)=O)cc2)cc1)C(F)(F)F)C(=O)NC1CCN(c2ccccc2S(C)(=O)=O)CC1=O (stereo partly drawn)	Ratio IC50	1
CC(C)(F)C[C@H](N[C@@H](c1ccc(-c2ccc(S(C)(=O)=O)cc2)cc1)C(F)(F)F)C(=O)NC1CCN(c2ccccc2)CC1=O (stereo partly drawn)	Ratio IC50	2
CC(C)(F)C[C@H](N[C@@H](c1ccc(-c2ccc(S(C)(=O)=O)cc2)cc1)C(F)(F)F)C(=O)NC1CN(C(=O)Nc2ccccc2)CC1=O (stereo partly drawn)	Ratio IC50	355
CC(C)(F)C[C@H](N[C@@H](c1ccc(-c2ccc(S(C)(=O)=O)cc2)cc1)C(F)(F)F)C(=O)NC1CN(C(=O)c2ccccc2)CC1=O (stereo partly drawn)	Ratio IC50	188
CC(C)(F)C[C@H](N[C@@H](c1ccc(-c2ccc(S(C)(=O)=O)cc2)cc1)C(F)(F)F)C(=O)NC1CCN(S(=O)(=O)c2ccccn2)CC1=O (stereo partly drawn)	Ratio IC50	232
CCOC(=O)N1CCC(NC(=O)[C@H](CC(C)(C)F)N[C@@H](c2ccc(-c3ccc(S(C)(=O)=O)cc3)cc2)C(F)(F)F)C(=O)C1 (stereo partly drawn)	Ratio IC50	364

###

molecular target: Cathepsin K (Homo sapiens, UniProt P43235); assay: Inhibition of humanized rabbit cathepsin K
Hi all, reminder that labels come from IC50, split as lower bin: < 4 nM; middle bin: ≥ 4 nM and < 20 nM; upper bin: ≥ 20 nM

compound	category
COC(=O)N1CC(=O)C(NC(=O)[C@H](CC(C)(C)F)N[C@@H](c2ccc(-c3ccc(S(C)(=O)=O)cc3)cc2)C(F)(F)F)C1 (some centres not stated)	middle bin
CC(C)(F)C[C@H](N[C@@H](c1ccc(-c2ccc(S(C)(=O)=O)cc2)cc1)C(F)(F)F)C(=O)NC1CCCN(S(=O)(=O)c2ccccn2)CC1=O (stereo in doubt; 11)	lower bin
CC(C)(F)C[C@H](N[C@@H](c1ccc(-c2ccc(S(C)(=O)=O)cc2)cc1)C(F)(F)F)C(=O)NC1CCCNCC1=O (some centres not stated)	upper bin
CC(C)(F)C[C@H](N[C@@H](c1ccc(-c2ccc(S(C)(=O)=O)cc2)cc1)C(F)(F)F)C(=O)NC1CN(C(N)=O)CC1=O (some centres not stated)	middle bin
CC(C)(F)C[C@H](N[C@@H](c1ccc(-c2ccc(S(C)(=O)=O)cc2)cc1)C(F)(F)F)C(=O)NC1(C#N)CC1	lower bin
CC(C)(F)C[C@H](N[C@@H](c1ccc(-c2ccc(S(C)(=O)=O)cc2)cc1)C(F)(F)F)C(=O)NC1CCCN(S(C)(=O)=O)CC1=O (some centres not stated)	middle bin
CC(C)(F)C[C@H](N[C@@H](c1ccc(-c2ccc(S(C)(=O)=O)cc2)cc1)C(F)(F)F)C(=O)NC1CCN(c2ccccc2S(C)(=O)=O)CC1=O (some centres not stated)	middle bin
CC(C)(F)C[C@H](N[C@@H](c1ccc(-c2ccc(S(C)(=O)=O)cc2)cc1)C(F)(F)F)C(=O)NC1CN(S(C)(=O)=O)CC1=O (some centres not stated)	upper bin
CC(C)(F)C[C@H](N[C@@H](c1ccc(-c2ccc(S(C)(=O)=O)cc2)cc1)C(F)(F)F)C(=O)NC1CN(C(=O)Nc2ccccc2)CC1=O (some centres not stated)	middle bin
CC(C)(F)C[C@H](N[C@@H](c1ccc(-c2ccc(S(C)(=O)=O)cc2)cc1)C(F)(F)F)C(=O)NC1CN(C(=O)NCc2ccccc2)CC1=O (some centres not stated)	middle bin
CCOC(=O)N1CCCC(NC(=O)[C@H](CC(C)(C)F)N[C@@H](c2ccc(-c3ccc(S(C)(=O)=O)cc3)cc2)C(F)(F)F)C(=O)C1 (some centres not stated)	upper bin
